- System: 317291-083-R-J1-PDC complex spheroids, viability;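 further: spheroids exposed to compounds for one week before readout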
- EXPERIMENTAL PROTOCOL: Anticancer human tumor 317291-083-R-J1-PDC patient-derived soft tissue sarcoma cell line growth inhibition [GQUAD]
- TEST CONDITIONS: curve of first compound; second compound 10 µM
Provide the reported IC50 of each item.

| COMPOUND | IC50 |
| --- | --- |
| C#Cc1c(F)ccc2cc(O)cc(-c3ncc4c(N5CC6CCC(C5)N6)nc(OCC56CCCN5CC(F)C6)nc4c3F)c12 (stereo not given) + Cc1[nH]c2ccc(F)cc2c1-c1nc2c3cccnc3c3ncccc3c2[nH]1 | 1360 nM |
| CC1COCCN1c1cc(-c2ccnn2C)c2ccnc(-c3ccn[nH]3)c2n1 (stereo not given) + Cc1[nH]c2ccc(F)cc2c1-c1nc2c3cccnc3c3ncccc3c2[nH]1 | 70.9 nM |
| CC(=O)O[C@H]1C(=O)[C@@]2(C)[C@H]([C@H](OC(=O)c3ccccc3)[C@]3(O)C[C@H](OC(=O)[C@H](O)[C@@H](NC(=O)c4ccccc4)c4ccccc4)C(C)=C1C3(C)C)[C@]1(OC(C)=O)CO[C@@H]1C[C@@H]2O + CN(C)c1ccc(Nc2c3ccc(NC(=O)CCN4CCCC4)cc3nc3cc(NC(=O)CCN4CCCC4)ccc23)cc1 | < 31.6 nM |
| Cn1ncnc1[C@H]1c2n[nH]c(=O)c3cc(F)cc(c23)N[C@@H]1c1ccc(F)cc1 + Cc1[nH]c2ccc(F)cc2c1-c1nc2c3cccnc3c3ncccc3c2[nH]1 | > 316 nM |
| CC1COCCN1c1cc(C2(S(C)(=N)=O)CC2)nc(-c2ccnc3[nH]ccc23)n1 (stereo not given) + Cc1cnc(CNC(=O)c2c(=O)c3ccc(N4CCCN(C)CC4)nc3n3c2sc2ccccc23)cn1 | < 31.6 nM |

Batch request: IC50 per item, same order as input.
1. COc1cc(C2c3cc4c(cc3C(OC3OC5COC(C)OC5C(O)C3O)C3COC(=O)C23)OCO4)cc(OC)c1O (stereo not given) + Cc1cnc(CNC(=O)c2c(=O)c3ccc(N4CCCN(C)CC4)nc3n3c2sc2ccccc23)cn1
2. O=c1[nH]cc(F)c(=O)[nH]1 + Cc1[nH]c2ccc(F)cc2c1-c1nc2c3cccnc3c3ncccc3c2[nH]1
3. CC(C)(O)C1CCC(Nc2ccc3ncc(-c4cccc(C(F)(F)F)c4)n3n2)CC1 (stereo not given) + Cc1[nH]c2ccc(F)cc2c1-c1nc2c3cccnc3c3ncccc3c2[nH]1

[out]
["< 31.6 nM", "823 nM", "< 31.6 nM"]
